Ref: paper PMC10504544

system.tested: 1-deoxy-D-xylulose-5-phosphate synthase (paDXPS) (Pseudomonas aeruginosa, UniProt B7V7R4, DEL206-245/INS205GGGGGG)
Construct: gene dxs
Sequence (B7V7R4 whole entry, stated change not applied): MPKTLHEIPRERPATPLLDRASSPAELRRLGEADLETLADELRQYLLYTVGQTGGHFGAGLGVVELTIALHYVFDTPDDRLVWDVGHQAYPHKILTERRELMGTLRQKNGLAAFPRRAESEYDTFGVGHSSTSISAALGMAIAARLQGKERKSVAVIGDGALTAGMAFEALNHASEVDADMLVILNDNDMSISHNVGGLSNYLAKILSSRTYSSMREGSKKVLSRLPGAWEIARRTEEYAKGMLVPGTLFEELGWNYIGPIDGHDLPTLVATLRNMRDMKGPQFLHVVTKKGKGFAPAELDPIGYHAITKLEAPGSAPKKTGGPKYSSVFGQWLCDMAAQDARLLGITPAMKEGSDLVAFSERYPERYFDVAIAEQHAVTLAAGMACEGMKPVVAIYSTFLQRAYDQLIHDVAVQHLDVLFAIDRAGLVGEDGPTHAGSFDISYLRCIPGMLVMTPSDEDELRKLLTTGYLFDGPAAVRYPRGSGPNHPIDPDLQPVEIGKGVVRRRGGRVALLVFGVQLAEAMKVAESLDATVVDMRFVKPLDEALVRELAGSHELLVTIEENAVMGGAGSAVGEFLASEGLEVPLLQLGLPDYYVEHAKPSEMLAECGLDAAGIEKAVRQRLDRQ
experiment.notes: IspC-coupled spectrophotometric assay; mode-of-inhibition study
Format: biochemical
pIC50: −log10 of the molar value.
measurement.label: pIC50

Enquiry: Entry O=C(O)C(=O)CF [fluoropyruvate] has what pIC50?
Return: ~4.57

====

system.tested: 1-deoxy-D-xylulose-5-phosphate synthase (kpDXPS) (Klebsiella pneumoniae, UniProt A6T5F3, DEL197-240/INS196GGGGGG)
Construct: truncated kpDXPS; residues 197 to 240 replaced with a six glycine unit
Sequence (A6T5F3 whole entry, stated change not applied, the tested form may be a part): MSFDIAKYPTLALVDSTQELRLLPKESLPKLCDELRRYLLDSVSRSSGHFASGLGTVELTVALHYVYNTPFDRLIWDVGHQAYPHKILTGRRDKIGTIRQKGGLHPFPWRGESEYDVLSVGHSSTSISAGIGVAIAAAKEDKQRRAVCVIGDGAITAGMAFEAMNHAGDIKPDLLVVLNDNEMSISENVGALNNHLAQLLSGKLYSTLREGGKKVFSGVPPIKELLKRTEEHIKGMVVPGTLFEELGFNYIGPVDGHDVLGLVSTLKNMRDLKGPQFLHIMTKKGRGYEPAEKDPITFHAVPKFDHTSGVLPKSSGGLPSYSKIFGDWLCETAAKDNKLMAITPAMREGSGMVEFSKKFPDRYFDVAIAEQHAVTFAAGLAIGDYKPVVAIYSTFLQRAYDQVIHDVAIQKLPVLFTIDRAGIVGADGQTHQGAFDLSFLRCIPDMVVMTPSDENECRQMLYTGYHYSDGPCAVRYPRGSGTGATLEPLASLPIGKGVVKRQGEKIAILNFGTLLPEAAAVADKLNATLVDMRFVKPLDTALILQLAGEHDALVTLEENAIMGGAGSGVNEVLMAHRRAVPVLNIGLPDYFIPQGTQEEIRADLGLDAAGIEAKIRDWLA
experiment.notes: IspC-coupled spectrophotometric assay
measurement.label: IC50 (µM)
One number for each entry, in µM.

Enquiry: Entry Cc1ncc(Cc2cccc(CCO)c2)c(N)n1 has what IC50?
Return: 94
